Catalogue of Specific binding readings, one per entry.
test system: Potassium Voltage-Gated Channel Kv non-selective, KCNQ1 (r); assay: IPP KCNQ1 binding (antagonist radioligand); design: species or system rat
Counter-ions that a name gives are not always drawn.
Report the figure in % without appending any unit label.

>  <COMPOUND>
CC(=O)CC(c1ccccc1)c1c([O-])c2ccccc2oc1=O.[Na+] (centres unmarked)

>  <NUMERIC_RESULT>
7.0

$$$$

Short answer please: Specific binding, Potassium Voltage-Gated Channel Kv non-selective, KCNQ1 (r), entry COc1ccc(CCN(C)CCCC(C#N)(c2ccc(OC)c(OC)c2)C(C)C)cc1OC (centres unmarked) [Verapamil Hydrochloride] 4.7

Short answer please: Specific binding, Potassium Voltage-Gated Channel Kv non-selective, KCNQ1 (r), entry C[C@H]1O[C@@H](O[C@H]2[C@@H](O)C[C@H](O[C@H]3[C@@H](O)C[C@H](O[C@H]4CC[C@@]5(C)[C@H](CC[C@@H]6[C@@H]5C[C@@H](O)[C@]5(C)[C@@H](C7=CC(=O)OC7)CC[C@]65O)C4)O[C@@H]3C)O[C@@H]2C)C[C@H](O)[C@@H]1O -2.7

Short answer please: Specific binding, Potassium Voltage-Gated Channel Kv non-selective, KCNQ1 (r), entry O=P1(N(CCCl)CCCl)NCCCO1 (centres unmarked) [Cyclophosphamide] 17.5

Short answer please: Specific binding, Potassium Voltage-Gated Channel Kv non-selective, KCNQ1 (r), entry CCOP(=S)(OCC)Oc1nc(Cl)c(Cl)cc1Cl 15.4

The measurements presented in this section are drawn from paper PMC11879040.
